The values you see were collected from ChEMBL document CHEMBL3576840.

Assay: Induction of hemolysis in human RBCs incubated for 1 hr
Assay type: cell-based, Erythrocyte
Conditions: red blood cells
Consider the following compounds; for each one, report its HC50 at 1 h.

Entry "CC(=O)N[C@@H](Cc1ccccc1)CN(CC(=O)N[C@@H](Cc1ccccc1)CN(CC(=O)N[C@@H](Cc1ccccc1)CN(CC(=O)N[C@@H](Cc1ccccc1)CN(CC(=O)N[C@@H](Cc1ccccc1)CN(CC(=O)N[C@@H](Cc1ccccc1)CN(CC(=O)N[C@@H](Cc1ccccc1)CN(CC(=O)N[C@@H](Cc1ccccc1)CN(CC(N)=O)S(=O)(=O)CCN)S(=O)(=O)CCN)S(=O)(=O)CCN)S(=O)(=O)CCN)S(=O)(=O)CCN)S(=O)(=O)CCN)S(=O)(=O)CCN)S(=O)(=O)CCN" has what HC50 at 1 h? > 250 µg/mL

Subsequent entry: "CC(=O)N[C@@H](CC(C)C)CN(CC(=O)N[C@@H](CC(C)C)CN(CC(=O)N[C@@H](CC(C)C)CN(CC(=O)N[C@@H](CCCCN)CN(CC(=O)N[C@@H](CC(C)C)CN(CC(=O)N[C@@H](CC(C)C)CN(CC(=O)N[C@@H](CC(C)C)CN(CC(=O)N[C@@H](CCCCN)CN(CC(N)=O)S(=O)(=O)CCN)S(=O)(=O)CC(C)C)S(=O)(=O)CCN)S(=O)(=O)CC(C)C)S(=O)(=O)CCN)S(=O)(=O)CC(C)C)S(=O)(=O)CCN)S(=O)(=O)CC(C)C" > 250 µg/mL

Now the compound "NCCCC[C@H](N)CN(CC(=O)N[C@@H](Cc1ccccc1)CN(CC(=O)N[C@@H](CCCCN)CN(CC(=O)N[C@@H](Cc1ccccc1)CN(CC(=O)N[C@@H](CCCCN)CN(CC(=O)N[C@@H](Cc1ccccc1)CN(CC(=O)N[C@@H](CCCCN)CN(CC(=O)N[C@@H](Cc1ccccc1)CN(CC(N)=O)S(=O)(=O)Cc1ccccc1)S(=O)(=O)CCN)S(=O)(=O)Cc1ccccc1)S(=O)(=O)Cc1ccccc1)S(=O)(=O)Cc1ccccc1)S(=O)(=O)CCN)S(=O)(=O)Cc1ccccc1)S(=O)(=O)Cc1ccccc1" 120 µg/mL
